- System: HepG2-CANX-COX4
- run description: phenotypically active (imaging signature differs from DMSO and reproducible) at any of 0.3-9 uM (binary (1 = active, 0 = inactive)); higher = active
- setup conditions: treatment time: 24 h
Each record here notes measured phenotypically active.
Lab note: write the figure by itself, no unit.

Before answering, review these 5 worked examples.
[
  {
    "compound": "CC(C)C(=O)SCCCCCCC(=O)Nc1nc(-c2ccccc2)cs1",
    "phenotypically active": 1
  },
  {
    "compound": "COc1cc(C[C@H]2C(=O)OC[C@@H]2Cc2ccc(OC)c(OC)c2)ccc1O",
    "phenotypically active": 1
  },
  {
    "compound": "CC(C)(C)NC(=O)[C@@H]1CN(Cc2cccnc2)CCN1C[C@@H](O)C[C@@H](Cc1ccccc1)C(=O)N[C@H]1c2ccccc2C[C@H]1O",
    "phenotypically active": 0
  },
  {
    "compound": "CN1C(CSCC(F)(F)F)Nc2cc(Cl)c(S(N)(=O)=O)cc2S1(=O)=O (centres undefined) [polythiazide]",
    "phenotypically active": 0
  },
  {
    "compound": "CCC1(c2ccccc2)C(=O)NCNC1=O",
    "phenotypically active": 0
  }
]

Now look at this entry.
What phenotypically active appears in the records for this compound with HepG2-CANX-COX4? COC(=O)C1=CO[C@@H](O[C@@H]2O[C@H](CO)[C@@H](O)[C@H](O)[C@H]2O)[C@H]2[C@@H]1C(=O)C[C@@H]2C
0

====

- System: A549-GM130-SQSTM1
- run description: phenotypically active (imaging signature differs from DMSO and reproducible) at any of 0.3-9 uM (binary (1 = active, 0 = inactive)); higher = active
- setup conditions: treatment time: 24 h
Tick one outcome: yes = active, no = inactive

# count of solved cases: 6
[
  {
    "chemical structure": "C#C[C@]1(O)CC[C@H]2[C@@H]3CCc4cc(OC5CCCC5)ccc4[C@H]3CC[C@@]21C",
    "class label": "no"
  },
  {
    "chemical structure": "COc1cc2nccc(Oc3ccc(NC(=O)C4(C(=O)Nc5ccc(F)cc5)CC4)cc3)c2cc1OC",
    "class label": "yes"
  },
  {
    "chemical structure": "OC[C@H]1O[C@@H](Oc2ccc(O)cc2)[C@H](O)[C@@H](O)[C@@H]1O",
    "class label": "no"
  },
  {
    "chemical structure": "CC(=O)OCC[N+](C)(C)C",
    "class label": "no"
  },
  {
    "chemical structure": "O=C(O)[C@H]1CCCC[C@H]1C(=O)N1CCc2ccccc2[C@H]1CN1C(=O)c2ccccc2C1=O",
    "class label": "no"
  },
  {
    "chemical structure": "O=C(Nc1ccncc1)c1cc([N+](=O)[O-])ccc1Cl",
    "class label": "no"
  }
]

Now for another entry.
Which outcome was assigned to NC12CC3CC(CC(C3)C1)C2 in this test?
no

====

- Test system: HepG2-GM130-SQSTM1
- run description: phenotypically active (imaging signature differs from DMSO and reproducible) at any of 0.3-9 uM (binary (1 = active, 0 = inactive)); higher = active
- setup conditions: treatment time: 24 h
Outcomes you can answer with include only these: active, inactive

[
  {
    "molecule": "Oc1ccc(Nc2nc(-c3ccc(Cl)cc3)cs2)cc1",
    "class label": "active"
  },
  {
    "molecule": "CCc1cc2c(=O)c(-c3nc4ccccc4s3)coc2c(CN2CCCCC2)c1O",
    "class label": "inactive"
  }
]

Let's switch to this molecule now.
// outcome(item) with item = COc1cc2nc3occc3c(OC)c2cc1OC
inactive
